- System: CCRF-CEM leukemia
- assay_comment: NCI-60 one-dose screen, 48 h
- condition_parameters: 10 µM unless noted
The panel holds about 83,000 compounds, 20% with a hit somewhere; the sample as a whole holds those more often. Activity calls are given as the source filed them. Rule for the calls: active = growth percent below 10; inactive = the rest.
Labels: TRUE (active), FALSE (inactive)

N#Cc1c(-c2cccc([N+](=O)[O-])c2)nc(SCC(=O)c2ccc(Cl)cc2)[nH]c1=O    TRUE
Cc1ccc(C(=O)/C(=C\c2ccc([N+](=O)[O-])cc2)S(=O)Cc2ccc(F)cc2)cc1 (stereo not drawn)    TRUE
CCCCOc1ccc(/C(C)=N/Nc2cc(C)nc3ccc(Br)cc23)cc1    FALSE
O=C(c1nc2ccccc2[nH]1)C1C(c2ccc(Cl)cc2)C2CC3CCCC[C@H]3N2[C@@]12C(=O)Nc1cc(Cl)ccc12 (stereo partly drawn)    FALSE
NC(=O)CSSCC(N)=O    FALSE
O=C(N/N=C/c1ccc(Oc2ccccc2)cc1)c1cnn2c1NC(c1ccccc1)C2 (stereo not drawn)    FALSE
S=c1cc(S)c2cc(Br)ccc2[nH]1    FALSE
COc1cc2c(=O)n(CCN(C)C)c3c4cc5c(cc4ccc3c2cc1OC)OCO5    TRUE
C/C=C(\C)C(=O)NC1=CC[C@@]2(C)C(=CCC3C2CC[C@@]2(C)C3CC[C@@H]2C(C)N(C)C)C1=O (stereo partly drawn)    FALSE
O=C(Nc1ccc(-c2ccc3c(c2)NC(=O)/C3=C\c2ccc[nH]2)cc1)NC1CC1    FALSE
N#CC1C(C#N)C2c3ccccc3C=CN2C1C(=O)c1ccc(Br)cc1 (stereo not drawn)    FALSE
Cc1ccc(-n2cc(-c3ccccc3)c3c2N=NN2CCN=C32)cc1    FALSE
COc1ccc(/C=C2\Oc3cc(OCCCN4CCCCC4)ccc3C2=O)cc1OC    FALSE
O=C1Nc2cc(-c3ccc(NS(=O)(=O)c4ccccc4)cc3)ccc2/C1=C/c1ccc[nH]1    FALSE
COc1ccc(CCn2cncc2-c2c[nH]c3ccccc23)cc1    FALSE
CC1=C(C(=O)/C=C/c2ccc(N(C)C)cc2)C(c2ccccc2)NC(=S)N1 (stereo not drawn)    FALSE
CC(=O)[C@H]1CCC/C=C/[C@@H]2C[C@H](O)C[C@H]2[C@H](O)/C=C/C(=O)O1    TRUE
COC(=O)C1=C(C(=O)ON)[C@@H]2C=C[C@@]1([C@@H](Cc1ccccc1)Nc1ccccc1)O2    TRUE
C[C@H]1[C@H](C)CC[C@]2(C(=O)NCC#CCN3CCN(C)CC3)CC[C@]3(C)C(=CC[C@@H]4[C@@]5(C)Cc6c([nH]c7ccccc67)C(C)(C)[C@@H]5CC[C@]43C)[C@H]12    FALSE
O=C(CCN1CCCC1)Nc1ccc2c(Nc3ccc(F)cc3)c3ccccc3nc2c1    TRUE
CCN(CC)CCCC(C)Nc1cc(O)cc2cccnc12 (stereo not drawn)    FALSE
COc1cc(/C=N/NC(=O)c2cnn3c2NC(c2ccccc2)C3)ccc1Oc1ccccc1 (stereo not drawn)    FALSE
Cc1cc2nc3c4cccc(O)c4n(CCN(C)C)c3nc2cc1C    FALSE
COc1ccc(C(=O)c2cc(OC)c(OC)c(OC)c2)cc1O    TRUE
NS(=O)(=O)c1ccc(CCN2C(=O)C=CC2=O)cc1    FALSE
Cc1cc2nc3c4cc([N+](=O)[O-])ccc4n(CCN(C)C)c3nc2cc1C    TRUE
C=C1C(=O)O[C@H]2[C@H]1CC/C(CNC(=O)C(C)c1ccc(CC(C)C)cc1)=C\CC[C@@]1(C)O[C@@H]21 (stereo partly drawn)    TRUE
CC1(C)c2[nH]c3ccccc3c2C[C@]2(C)[C@H]3C(=O)C=C4[C@@H]5C[C@@](C)(C(N)=O)CC[C@]5(C)CC[C@@]4(C)[C@]3(C)CC[C@@H]12    FALSE
